# Measured On: T1, B lymphocyte stimulator protein (BLyS), recombinant (human, UniProt Q9Y275 134-285, limits assumed, biotinylated in the phage screening and phage ELISA; unlabeled in fluorescence anisotropy)
# T1 construct: also called biotinylated BLyS; b-BLyS
# Test Method Notes: not stated there (fluorescence anisotropy elsewhere)
No end group written: not given here.
Endpoint Label: Kd (µM)
Numbers only, in µM.

In: Record request: Kd value, item Ac-WTDSLTGLWFPDGGPGPEGGGK [DX221]
Out: 3
